The origin of these recorded values is patent US20070117743A1.

System: SK-BR-3
Test: SRB colorimetric assay of cell growth and viability, SK-BR-3
Assay type: cell-based, human
Details: 48 hours exposure
Where a SMILES comes first, the peptide text is derived from it. Bridges are numbered along the chain shown (N, C = ends). [ ]: non-standard residue; d: D form. The star is where a group is joined. d(aIle) = CC[C@H](C)[C@@H](N)C(=O)O; d(aThr) = C[C@@H](O)[C@@H](N)C(=O)O; Hexanoyl(5-Me) = CC(C)CCCC(=O)*; Orn = NCCC[C@H](N)C(=O)O; Dhb = C/C=C(\N)C(=O)O

{"compound": "C/C=C1\\NC(=O)[C@H](Cc2ccccc2)NC(=O)[C@@H](C(C)C)NC(=O)[C@@H]([C@@H](C)CC)NC(=O)[C@H](NC(=O)[C@H](NC(=O)[C@H](CCCN)NC(=O)[C@H]2CCCN2C(=O)[C@H](NC(=O)[C@H](Cc2ccccc2)NC(=O)[C@@H](NC(=O)[C@H](NC(=O)CCCC(C)C)C(C)C)[C@@H](C)O)C(C)C)[C@@H](C)CC)[C@@H](C)OC(=O)[C@H](C(C)C)NC1=O [Compound 43, [Phe^11]-KF] ({Hexanoyl(5-Me)}-[dV]TF[dV][dP][Orn][d(aIle)][d(aThr)][d(aIle)][dV]F[Dhb]V; ester 8-C)", "resultModifier": "=", "GI50 [nM]": 119}
{"compound": "C/C=C1\\NC(=O)[C@H](Cc2ccccc2)NC(=O)[C@@H](C(C)C)NC(=O)[C@@H]([C@@H](C)CC)NC(=O)[C@H](NC(=O)[C@H](NC(=O)[C@H](CCCN)NC(=O)[C@H]2CCCN2C(=O)[C@H](NC(=O)[C@@H](NC(=O)[C@@H](NC(=O)[C@H](NC(=O)C(F)(F)C(F)(F)C(F)(F)C(F)(F)C(F)(F)C(F)(F)F)C(C)C)[C@@H](C)O)C(C)C)C(C)C)[C@@H](C)CC)[C@@H](C)OC(=O)[C@H](C(C)C)NC1=O [Compound 26, [Pfh^14]-KF]", "resultModifier": "=", "GI50 [nM]": 144}
{"compound": "C/C=C1\\NC(=O)[C@H](Cc2ccccc2)NC(=O)[C@@H](C(C)C)NC(=O)[C@@H]([C@@H](C)CC)NC(=O)[C@H](NC(=O)[C@H](NC(=O)[C@H](CCCN)NC(=O)[C@H]2CCCN2C(=O)[C@H](NC(=O)[C@@H](NC(=O)[C@H](CCC(N)=O)NC(=O)CCCC(C)C)C(C)C)C(C)C)[C@@H](C)CC)[C@@H](C)OC(=O)[C@H](C(C)C)NC1=O [Compound 58, [Gln^12, noD-Val^13]-KF] ({Hexanoyl(5-Me)}-QV[dV][dP][Orn][d(aIle)][d(aThr)][d(aIle)][dV]F[Dhb]V; ester 7-C)", "resultModifier": "≥", "GI50 [nM]": 7110}
{"compound": "C/C=C1\\NC(=O)[C@H](Cc2ccccc2)NC(=O)[C@@H](C(C)C)NC(=O)[C@@H]([C@@H](C)CC)NC(=O)[C@H](NC(=O)[C@H](NC(=O)[C@H](CCCN)NC(=O)[C@H]2CCCN2C(=O)[C@H](NC(=O)CNC(=O)[C@@H](NC(=O)[C@H](NC(=O)CCCC(C)C)C(C)C)[C@@H](C)O)C(C)C)[C@@H](C)CC)[C@@H](C)OC(=O)[C@H](C(C)C)NC1=O [Compound 42, [Gly^11]-KF] ({Hexanoyl(5-Me)}-[dV]TG[dV][dP][Orn][d(aIle)][d(aThr)][d(aIle)][dV]F[Dhb]V; ester 8-C)", "resultModifier": "=", "GI50 [nM]": 6960}
